Target: T1, full length human TPO-R (human, UniProt P40238 26-635)
T1 sequence (looked up): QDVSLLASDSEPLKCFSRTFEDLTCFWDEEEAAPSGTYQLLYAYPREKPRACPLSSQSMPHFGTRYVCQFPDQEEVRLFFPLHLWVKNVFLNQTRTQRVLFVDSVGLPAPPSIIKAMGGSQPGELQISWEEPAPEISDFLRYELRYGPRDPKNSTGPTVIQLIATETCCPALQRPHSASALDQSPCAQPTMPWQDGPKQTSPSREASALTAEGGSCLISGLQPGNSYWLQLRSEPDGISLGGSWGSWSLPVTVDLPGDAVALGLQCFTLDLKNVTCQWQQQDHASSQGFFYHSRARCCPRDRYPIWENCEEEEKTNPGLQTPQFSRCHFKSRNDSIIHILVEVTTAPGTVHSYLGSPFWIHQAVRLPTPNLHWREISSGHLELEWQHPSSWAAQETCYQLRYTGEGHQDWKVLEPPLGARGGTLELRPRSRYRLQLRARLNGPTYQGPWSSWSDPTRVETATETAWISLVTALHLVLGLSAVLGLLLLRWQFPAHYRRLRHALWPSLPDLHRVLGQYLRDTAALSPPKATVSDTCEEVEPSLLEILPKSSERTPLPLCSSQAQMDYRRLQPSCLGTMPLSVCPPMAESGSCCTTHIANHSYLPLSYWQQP
Test: cell-based or functional assay
Where no end group is shown, it is not given here.
EC50 microphysiometer overview
Property: EC50 microphysiometer

- Binder: "ADGPTLREWISFC (also: further groups not given here, structure printed only as a drawing) [[drawing CHEM-US-00004] (SEQ ID NO:173)]"
  Value Reported: "≤ 0.5 µM"
- Binder: "KADGPTLREWISFE (also: further groups not given here) [[drawing CHEM-US-00014] (SEQ ID NO:181)]"
  Value Reported: "~200 µM"
- Binder: "ADGPTLREWISFC (also: further groups not given here) [[drawing CHEM-US-00016] (SEQ ID NO:173)]"
  Value Reported: "≤ 200 µM"
- Binder: "ADGPTLREWISFC (also: further groups not given here) [[drawing CHEM-US-00017] (SEQ ID NO:173)]"
  Value Reported: "~200 µM"
- Binder: "ADGPTLREWISFC (not fully specified; also: further groups not given here) [[drawing CHEM-US-00013] (SEQ ID NO:173)]"
  Value Reported: "~200 µM"
- Binder: "ADGPTLREWISFE (also: further groups not given here) [[drawing CHEM-US-00018] (SEQ ID NO:183)]"
  Value Reported: "~200 µM"
- Binder: "EADGPTLREWISFK (also: further groups not given here) [[drawing CHEM-US-00015] (SEQ ID NO:182)]"
  Value Reported: "≤ 200 µM"
- Binder: "ADGPTLREWISFC (not fully specified; also: further groups not given here) [[drawing CHEM-US-00006] (SEQ ID NO:173)]"
  Value Reported: "~200 µM"

Source of measurements: patent US7091311
